Taken from patent US9580470B2.

assay: Purity and stability test (content of impurities on storage); assay type: physicochemical; conditions: sealed containers at 0-8° C. for 7 days
Please provide measured 0-8° C., content of impurities in the sample at 7 day for the entries that follow.
Give your result in % as a bare value.

Value lookup for 0-8° C., content of impurities in the sample at 7 day; key = CC(O)C1NC(=O)C(N)CC(O)C(O)NC(=O)C2C(O)C(C)CN2C(=O)C(C(O)CC(N)=O)NC(=O)C(C(O)C(O)c2ccc(O)c(OS(=O)(=O)O)c2)NC(=O)C2CC(O)CN2C1=O (single isomer, unassigned) [Comparative Example 7]
4.7

Value lookup for 0-8° C., content of impurities in the sample at 7 day; key = CC(O)C1NC(=O)C(N)CC(O)C(O)NC(=O)C2C(O)C(C)CN2C(=O)C(C(O)CC(N)=O)NC(=O)C(C(O)C(O)c2ccc(O)c(OS(=O)(=O)O)c2)NC(=O)C2CC(O)CN2C1=O (single isomer, unassigned) [Comparative Example 6]
4.1
